Test system: HL-60 cells
Assay: Cell viability resazurin assay, HL-60 cells
Type: cell-based, human
Conditions: 2 h incubation, 25 µM, ± SD
Readout name: viability of HL-60 cells relative to control (%)
Write the value in % as a bare number.

Qu. Fill in the recorded viability of HL-60 cells relative to control for this molecule, with HL-60 cells as test system: `CCOP(OCC)OCC.O=C1C=CC(=O)[N-]1.[C-]#[O+].[Fe+2].c1cc[cH-]c1`
Ans. 97.68

Qu. Can you look up viability of HL-60 cells relative to control on HL-60 cells for `O=C1C=CC(=O)[N-]1.[C-]#[O+].[Fe+2].c1cc[cH-]c1.c1coc(P(c2ccco2)c2ccco2)c1` ?
Ans. 95.86

Qu. API: value(readout= viability of HL-60 cells relative to control, system= HL-60 cells, query= `O=C1C=CC(=O)[N-]1.[C-]#[O+].[C-]#[O+].[Fe+2].c1cc[cH-]c1` )
Ans. 83.96

Qu. Requested read-out viability of HL-60 cells relative to control, target or system HL-60 cells, entry `O=C1C=CC(=O)[N-]1.[C-]#[O+].[Fe+2].c1cc[cH-]c1.c1ccc(P(c2ccccc2)c2ccccc2)cc1`
Ans. 120.78

Qu. Lab note: need viability of HL-60 cells relative to control for `O=C1C=CC(=O)[N-]1.[C-]#[O+].[Fe+2].c1cc[cH-]c1.c1ccc(OP(Oc2ccccc2)Oc2ccccc2)cc1` on HL-60 cells, anyone have it?
Ans. 140.68

====

Test system: A549 cells
Assay: Cell viability resazurin assay, A549 cells
Format: cell-based, human
Conditions: 2 h incubation, 1 µM, ± SD
Each item that follows carries a reported viability of A549 cells relative to control.

Worked examples follow.
Compound | Recorded result
CCOP(OCC)OCC.O=C1C=CC(=O)[N-]1.[C-]#[O+].[Fe+2].c1cc[cH-]c1 [3a] | 89.02 ± 8.33%
O=C1C=CC(=O)[N-]1.[C-]#[O+].[Fe+2].c1cc[cH-]c1.c1ccc(P(c2ccccc2)c2ccccc2)cc1 [2a, CpFe(CO)(PPh3)(η^1-N-maleimidato)] | 71.98 ± 10.47%
O=C1C=CC(=O)[N-]1.[C-]#[O+].[Fe+2].c1cc[cH-]c1.c1ccc(OP(Oc2ccccc2)Oc2ccccc2)cc1 [3b, CpFe(CO)(P(OPh)3)(η^1-N-maleimidato)] | 97.15 ± 8.30%
O=C1C=CC(=O)[N-]1.[C-]#[O+].[C-]#[O+].[Fe+2].c1cc[cH-]c1 [compound 1, CpFe(CO)2(η^1-N-maleimidato)] | 93.56 ± 10.37%

Attention now turns to another entry.
Qu. Bench note: what viability of A549 cells relative to control did O=C1C=CC(=O)[N-]1.[C-]#[O+].[Fe+2].c1cc[cH-]c1.c1coc(P(c2ccco2)c2ccco2)c1 [2b, CpFe(CO)(P(Fu)3)(η^1-N-maleimidato)] show?
Ans. 80.74 ± 14%

====

Tested on: HL-60 cells
Experiment: Cell viability resazurin assay, HL-60 cells
Assay type: cell-based, human
Details: 2 h incubation, 100 µM, ± SD
Measured viability of HL-60 cells relative to control accompanies every entry in the list below.
# unit: % | format: bare number

Answered cases to consult:
Molecule smiles | Recorded result
O=C1C=CC(=O)[N-]1.[C-]#[O+].[C-]#[O+].[Fe+2].c1cc[cH-]c1 | 24.73
O=C1C=CC(=O)[N-]1.[C-]#[O+].[Fe+2].c1cc[cH-]c1.c1coc(P(c2ccco2)c2ccco2)c1 | 76.15

Qu. Find the recorded viability of HL-60 cells relative to control belonging to `O=C1C=CC(=O)[N-]1.[C-]#[O+].[Fe+2].c1cc[cH-]c1.c1ccc(P(c2ccccc2)c2ccccc2)cc1` and report it.
Ans. 116.98

Qu. I would be grateful if you could share the reported viability of HL-60 cells relative to control for `CCOP(OCC)OCC.O=C1C=CC(=O)[N-]1.[C-]#[O+].[Fe+2].c1cc[cH-]c1` .
Ans. 87.54

Qu. Data request, read-out viability of HL-60 cells relative to control, for `O=C1C=CC(=O)[N-]1.[C-]#[O+].[Fe+2].c1cc[cH-]c1.c1ccc(OP(Oc2ccccc2)Oc2ccccc2)cc1`
Ans. 70.87

====

Test system: HL-60 cells
Assay: Cell viability resazurin assay, HL-60 cells
Format: cell-based, human
Conditions: 24 h incubation, 1 µM, ± SD
// reported viability of HL-60 cells relative to control per item
Write the answer as a number in %, unit excluded.

Examples with their reported viability of HL-60 cells relative to control follow.
Compound | Recorded result
O=C1C=CC(=O)[N-]1.[C-]#[O+].[Fe+2].c1cc[cH-]c1.c1ccc(P(c2ccccc2)c2ccccc2)cc1 [2a, CpFe(CO)(PPh3)(η^1-N-maleimidato)] | 104.21
CCOP(OCC)OCC.O=C1C=CC(=O)[N-]1.[C-]#[O+].[Fe+2].c1cc[cH-]c1 [3a] | 109.38

Qu. I am curious: what viability of HL-60 cells relative to control value has been reported for O=C1C=CC(=O)[N-]1.[C-]#[O+].[Fe+2].c1cc[cH-]c1.c1coc(P(c2ccco2)c2ccco2)c1 [2b, CpFe(CO)(P(Fu)3)(η^1-N-maleimidato)] ?
Ans. 105.5

Qu. Reported viability of HL-60 cells relative to control for O=C1C=CC(=O)[N-]1.[C-]#[O+].[C-]#[O+].[Fe+2].c1cc[cH-]c1 [compound 1, CpFe(CO)2(η^1-N-maleimidato)] : what is it?
Ans. 107.4

Qu. Item under review: O=C1C=CC(=O)[N-]1.[C-]#[O+].[Fe+2].c1cc[cH-]c1.c1ccc(OP(Oc2ccccc2)Oc2ccccc2)cc1 [3b, CpFe(CO)(P(OPh)3)(η^1-N-maleimidato)] . Reported viability of HL-60 cells relative to control?
Ans. 98.91

====

Test system: A549 cells
Test: Cell viability resazurin assay, A549 cells
Type: cell-based, human
Details: 24 h incubation, 100 µM, ± SD
viability of A549 cells relative to control values for the compounds below.
Put down the number, then write its unit next to it.

Compound | Recorded result
O=C1C=CC(=O)[N-]1.[C-]#[O+].[C-]#[O+].[Fe+2].c1cc[cH-]c1 [compound 1, CpFe(CO)2(η^1-N-maleimidato)] | 9.43 ± 1.69%
O=C1C=CC(=O)[N-]1.[C-]#[O+].[Fe+2].c1cc[cH-]c1.c1ccc(P(c2ccccc2)c2ccccc2)cc1 [2a, CpFe(CO)(PPh3)(η^1-N-maleimidato)] | 120.77 ± 9.93%
O=C1C=CC(=O)[N-]1.[C-]#[O+].[Fe+2].c1cc[cH-]c1.c1ccc(OP(Oc2ccccc2)Oc2ccccc2)cc1 [3b, CpFe(CO)(P(OPh)3)(η^1-N-maleimidato)] | 42.71 ± 5.87%
O=C1C=CC(=O)[N-]1.[C-]#[O+].[Fe+2].c1cc[cH-]c1.c1coc(P(c2ccco2)c2ccco2)c1 [2b, CpFe(CO)(P(Fu)3)(η^1-N-maleimidato)] | 13.33 ± 3.51%

Kindly consider the entry below.
Qu. Which value of viability of A549 cells relative to control has been reported for CCOP(OCC)OCC.O=C1C=CC(=O)[N-]1.[C-]#[O+].[Fe+2].c1cc[cH-]c1 [3a] in the records?
Ans. 153.54 ± 19.26%

====

System: A549 cells
Assay: Cell viability resazurin assay, A549 cells
Assay type: cell-based, human
Settings: 24 h incubation, 2.5 µM, ± SD
Items are presented alongside their recorded viability of A549 cells relative to control.
Reply numerically in %, unit not repeated.

Molecule smiles | Unit tag | Recorded result
O=C1C=CC(=O)[N-]1.[C-]#[O+].[Fe+2].c1cc[cH-]c1.c1ccc(OP(Oc2ccccc2)Oc2ccccc2)cc1 | % | 78.64

Qu. Fill blank: measured viability of A549 cells relative to control of the compound `CCOP(OCC)OCC.O=C1C=CC(=O)[N-]1.[C-]#[O+].[Fe+2].c1cc[cH-]c1` is ____.
Ans. 68.70

Qu. Name the reported viability of A549 cells relative to control value associated with the compound `O=C1C=CC(=O)[N-]1.[C-]#[O+].[Fe+2].c1cc[cH-]c1.c1ccc(P(c2ccccc2)c2ccccc2)cc1`
Ans. 68.69

Qu. viability of A549 cells relative to control for `O=C1C=CC(=O)[N-]1.[C-]#[O+].[Fe+2].c1cc[cH-]c1.c1coc(P(c2ccco2)c2ccco2)c1` ?
Ans. 73.54

Qu. // viability of A549 cells relative to control lookup, key: `O=C1C=CC(=O)[N-]1.[C-]#[O+].[C-]#[O+].[Fe+2].c1cc[cH-]c1`
Ans. 73.33

====

Test system: PBM cells
Experiment: Cell viability resazurin assay, PBM cells
Assay type: cell-based, human
Settings: 24 h incubation, 250 µM, ± SD
Readout name: viability of PBM cells relative to control (%)
State just the number; it will be interpreted in %.

Worked set:
Compound | Unit tag | Recorded result
CCOP(OCC)OCC.O=C1C=CC(=O)[N-]1.[C-]#[O+].[Fe+2].c1cc[cH-]c1 [3a] | % | 94.72
O=C1C=CC(=O)[N-]1.[C-]#[O+].[Fe+2].c1cc[cH-]c1.c1ccc(P(c2ccccc2)c2ccccc2)cc1 [2a, CpFe(CO)(PPh3)(η^1-N-maleimidato)] | % | 32.79
O=C1C=CC(=O)[N-]1.[C-]#[O+].[Fe+2].c1cc[cH-]c1.c1ccc(OP(Oc2ccccc2)Oc2ccccc2)cc1 [3b, CpFe(CO)(P(OPh)3)(η^1-N-maleimidato)] | % | 13.82
O=C1C=CC(=O)[N-]1.[C-]#[O+].[C-]#[O+].[Fe+2].c1cc[cH-]c1 [compound 1, CpFe(CO)2(η^1-N-maleimidato)] | % | 21.96

Qu. Reported viability of PBM cells relative to control, compound O=C1C=CC(=O)[N-]1.[C-]#[O+].[Fe+2].c1cc[cH-]c1.c1coc(P(c2ccco2)c2ccco2)c1 [2b, CpFe(CO)(P(Fu)3)(η^1-N-maleimidato)] : ____
Ans. 77.59
